This section presents sequences with their documented apparent KD of MS2 coat protein values.
system: MS2 coat protein; test: apparent KD of MS2 coat protein; higher = weaker reporter binding; settings: Eterna round: R107; input ligand: theophylline 2 mM
Readout name: apparent KD of MS2 coat protein (nM)

[[record]]
macromolecule_sequence = "UGUAUGUGAUUUGAUACCAGACCAGCUGGUGGUACCUGAGGAACACCCAGGUAGGUUUGGGUCCCUUGGCAGCAAAUCGCAUACU [SS Theo B #24 Ms7]"
measured_on = "MS2 coat protein"
readout_name = "apparent KD of MS2 coat protein"
test_result = 21.4

[[record]]
macromolecule_sequence = "CCGUUUUAUGGCGACAUAGGGCGGACUGAAGGAGCGGUAUAAAAGCCAGGUAGGUCGCAGAGAUCCACAUGAGGAUCACCCAUGU [!0.aA]"
measured_on = "MS2 coat protein"
readout_name = "apparent KD of MS2 coat protein"
test_result = 41

[[record]]
macromolecule_sequence = "UGUAUGGACUGAAGGAGCGCCUCAAAAUAACUUGAGGAACACCCAAGUAAGGCGAAAGCCGGGCAGGUAGGUCGCAGUCCAUACU [ArgBX 3]"
measured_on = "MS2 coat protein"
readout_name = "apparent KD of MS2 coat protein"
test_result = 46.1

[[record]]
macromolecule_sequence = "UCGUGUCUAUUGGUUUAGCUUUAAUCGUUACGAGGACCGGUACGGCCGCCACUCGAUUUAACAUGAGGAUCACCCAUGUACUCUC [JR_ExcTryptoA_Sub012]"
measured_on = "MS2 coat protein"
readout_name = "apparent KD of MS2 coat protein"
test_result = 21.4

[[record]]
macromolecule_sequence = "GUAGGUCAGUGAUCCCGACCUACACUGGAAGGAGCGAGCGAAAGCUCAGGUAGGUCGCCAGAAACAUGAGGAUCACCCAUGUAAU [(A)''-(M)'-(A)'-(Arg1)-(Arg2)-(M1)-(M2)_Design1]"
measured_on = "MS2 coat protein"
readout_name = "apparent KD of MS2 coat protein"
test_result = 219

[[record]]
macromolecule_sequence = "UGUAUGGACUGAAGGAGCGGAAAAUAAAUCUGAGGAUCACCCAGGUAAUAGGCGAAAGCCAUCCAGGUAGGUCGCAGUCCAUACU"
measured_on = "MS2 coat protein"
readout_name = "apparent KD of MS2 coat protein"
test_result = 133

